study.target: Cytochrome P450 2C19 (Homo sapiens)
Sequence (P33261 whole entry): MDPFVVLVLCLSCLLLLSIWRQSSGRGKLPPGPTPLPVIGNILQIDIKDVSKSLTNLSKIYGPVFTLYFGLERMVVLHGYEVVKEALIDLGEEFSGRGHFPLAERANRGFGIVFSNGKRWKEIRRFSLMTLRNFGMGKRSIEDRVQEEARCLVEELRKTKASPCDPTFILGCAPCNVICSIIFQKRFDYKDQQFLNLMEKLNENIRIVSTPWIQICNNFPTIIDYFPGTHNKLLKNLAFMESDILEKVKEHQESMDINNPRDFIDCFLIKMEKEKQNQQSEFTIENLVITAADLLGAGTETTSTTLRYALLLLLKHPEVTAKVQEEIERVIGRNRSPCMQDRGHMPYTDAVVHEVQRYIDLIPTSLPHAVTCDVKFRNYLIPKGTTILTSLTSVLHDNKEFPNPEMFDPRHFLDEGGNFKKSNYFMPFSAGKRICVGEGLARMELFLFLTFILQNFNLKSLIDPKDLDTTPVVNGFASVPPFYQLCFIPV
test.description: Cytochrome panel assay with activity outcomes. Panel member name: p450-cyp2c19 Compounds with AC50 equal or less than 10 uM are considered active
Assay type: functional
experimental.parameters: read-out: AC50
measurement.kind: AC50

input: So what does the record say about AC50 for CC1(O)CC(=O)N(c2ccccc2)O1 (stereo unspecified) ?
output: 17.8 µM (inconclusive)

input: Give its AC50 value. Item: COC(=O)c1c(-n2c(C)cc(C=O)c2C)sc2c1CCCC2
output: 0.794 µM (inconclusive)

input: Given the entry CCC(=S)/C=C1\Sc2ccc3ccccc3c2N1CCCS(=O)(=O)O , report its measured AC50.
output: 28.2 µM (inconclusive)

input: Suppose we examine the compound COc1cccc(NC(=O)CSc2nnc(CN3CCOCC3)n2C)c1 ; what AC50 value has been reported?
output: 28.2 µM (inconclusive)

input: Any idea what its AC50 is? The compound is COC(=O)[C@@]1(Cc2ccc(F)cc2)[C@H]2c3cc(C(=O)N(C)C)n(CCO)c3C[C@H]2CN1C(=O)c1ccccc1
output: 25.1 µM (inconclusive)

input: Reported AC50 for CCCCNCCOCCOc1ccc(C)cc1[N+](=O)[O-] : what is it?
output: 39.8 µM (inconclusive)

input: Bench note: what AC50 did CCCCNC(=O)C1CC(=O)N(CCC(C)C)C1 (stereo unspecified) show?
output: 25.1 µM (inconclusive)

input: Please look up its AC50: CCn1ccc(C(=O)Oc2ccc(Cl)cc2)n1
output: 11.2 µM (inconclusive)

input: Name the reported AC50 value associated with the compound NC(=O)[C@@H]1CCCN1Cc1ccc2c(c1)OCO2
output: 5.01 µM (inconclusive)

input: Any idea what its AC50 is? The compound is CCC(C)(C(=O)NC1CCCC1)N(C(=O)c1ccccn1)c1ccccc1 (stereo unspecified)
output: 8.91 µM (inconclusive)

input: I would be grateful if you could share the reported AC50 for COc1ccc2c(Cl)cc(NC(=S)Nc3ccccc3)nc2c1 .
output: 3.16 µM (inconclusive)
